- measured-target: human Cystic Fibrosis Transmembrane Conductance Regulator (CFTR) harboring the ΔF508 mutation (Homo sapiens, UniProt P13569, DEL508-508)
- Sequence (P13569 with tags, fused parts or gaps DEL508-508): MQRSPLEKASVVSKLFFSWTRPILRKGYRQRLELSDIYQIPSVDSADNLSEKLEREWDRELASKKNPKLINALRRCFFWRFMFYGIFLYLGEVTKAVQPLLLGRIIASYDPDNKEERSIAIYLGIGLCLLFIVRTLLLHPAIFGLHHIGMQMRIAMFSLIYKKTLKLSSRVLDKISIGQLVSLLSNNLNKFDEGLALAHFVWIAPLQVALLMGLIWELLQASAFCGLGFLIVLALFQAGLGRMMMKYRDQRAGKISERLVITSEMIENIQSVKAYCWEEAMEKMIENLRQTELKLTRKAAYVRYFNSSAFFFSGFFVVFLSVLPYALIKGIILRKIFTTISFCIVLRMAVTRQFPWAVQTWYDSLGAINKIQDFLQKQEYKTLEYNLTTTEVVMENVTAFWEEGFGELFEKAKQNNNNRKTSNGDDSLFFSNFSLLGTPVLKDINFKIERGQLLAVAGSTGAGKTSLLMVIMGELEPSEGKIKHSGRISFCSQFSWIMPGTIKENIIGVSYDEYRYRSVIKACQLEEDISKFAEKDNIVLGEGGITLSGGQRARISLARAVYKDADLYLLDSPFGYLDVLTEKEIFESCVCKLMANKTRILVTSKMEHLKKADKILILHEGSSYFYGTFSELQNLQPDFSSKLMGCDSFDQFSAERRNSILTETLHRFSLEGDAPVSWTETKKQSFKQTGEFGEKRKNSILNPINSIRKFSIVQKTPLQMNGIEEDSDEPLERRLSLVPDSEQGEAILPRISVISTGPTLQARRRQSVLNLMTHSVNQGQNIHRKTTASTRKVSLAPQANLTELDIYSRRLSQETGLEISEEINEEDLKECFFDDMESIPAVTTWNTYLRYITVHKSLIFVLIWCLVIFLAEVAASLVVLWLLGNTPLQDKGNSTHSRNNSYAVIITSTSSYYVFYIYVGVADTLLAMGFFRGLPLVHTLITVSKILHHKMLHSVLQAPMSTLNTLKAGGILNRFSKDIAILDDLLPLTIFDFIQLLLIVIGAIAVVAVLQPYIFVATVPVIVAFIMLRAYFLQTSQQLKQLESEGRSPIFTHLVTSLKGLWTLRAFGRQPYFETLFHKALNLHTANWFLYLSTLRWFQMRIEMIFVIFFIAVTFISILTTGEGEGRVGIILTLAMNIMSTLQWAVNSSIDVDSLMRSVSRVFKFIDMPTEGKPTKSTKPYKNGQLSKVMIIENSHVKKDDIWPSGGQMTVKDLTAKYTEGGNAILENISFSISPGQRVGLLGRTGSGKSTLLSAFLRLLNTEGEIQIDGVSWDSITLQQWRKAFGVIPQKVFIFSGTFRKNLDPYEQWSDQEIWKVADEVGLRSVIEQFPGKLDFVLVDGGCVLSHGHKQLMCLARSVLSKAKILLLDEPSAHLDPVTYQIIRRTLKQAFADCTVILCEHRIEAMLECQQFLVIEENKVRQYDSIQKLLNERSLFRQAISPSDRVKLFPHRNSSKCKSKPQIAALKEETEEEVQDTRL
- run-description: H441 cell ΔF508-CFTR-HRP cell surface assay (Emax and EC50)
experimental-endpoint: EC50 (nM)
Answers are plain numbers, in nM.

CC(C)(C)C[C@H](NC(=O)c1ccc2cc(F)ccc2c1OCc1ccc(S(F)(F)(F)(F)F)cc1)C(=O)O [Example 112] : 1900
CC(C)C#CCOc1c(C(=O)N[C@H](C(=O)O)C(C)(C)C)ccc2ccccc12 [Example 235] : 15200
CC1([C@H](NC(=O)c2ccc3cc(F)ccc3c2OCc2ccc(OC(F)(F)F)cc2)C(=O)O)CC1 [Example 30] : 2000
O=C(N[C@H](C(=O)O)C1CCCC1)c1ccc2ccccc2c1OCc1ccc(SC(F)(F)F)cc1 [Example 114] : 2600

State recorded EC50 for all listed molecules.
1. CC(C)(C)[C@H](NC(=O)c1ccc2ccccc2c1OCc1ccc(C(F)(F)F)cn1)C(=O)O [Example 2]
2. CC1([C@H](NC(=O)c2ccc3ccc(Cl)cc3c2OCc2ccc(C(F)(F)F)cc2)C(=O)O)CCC1 [Example 300]
3. COc1ccc2ccc(C(=O)N[C@H](C(=O)O)C(C)(C)C)c(OCc3ccc(C(F)(F)F)cc3)c2c1 [Example 308]
4. O=C(N[C@@H](Cc1ccc(C(F)(F)F)cc1)C(=O)O)c1ccc2ccccc2c1OCC1CCCCC1 [Example 200]
5. CCC(C)(C)[C@H](NC(=O)c1ccc2ccc(F)cc2c1OCc1ccc(C(F)(F)F)cc1)C(=O)O [Example 274]

Reply |
4800
200
500
20500
200

State recorded EC50 for all listed molecules.
1. CC(C)(C)[C@H](NC(=O)c1ccc2ccccc2c1OCc1ccc([N+](=O)[O-])cc1)C(=O)O [Example 231]
2. CC(C)Oc1ccc2c(OCc3ccc(C(F)(F)F)cc3)c(C(=O)N[C@H](C(=O)O)C(C)(C)C)ccc2c1 [Example 260]
3. CCC(C)(C)[C@H](NC(=O)c1ccc2ccc(OC)cc2c1OCc1ccc(OC(F)(F)F)cc1)C(=O)O [Example 311]
4. CC(C)(C)C[C@H](NC(=O)c1ccc2cc(F)ccc2c1OCC1CCC(F)(F)CC1)C(=O)O [Example 109]
5. CC(C)(SC1CCCC1)[C@H](NC(=O)c1ccc2ccccc2c1OCC1CCCCC1)C(=O)O [Example 170]
6. CC(C)(SCC1CC1(F)F)[C@H](NC(=O)c1ccc2ccccc2c1OCC1CCCCC1)C(=O)O (some centres unmarked) [Example 165]

Reply |
[7800, 1500, 500, 14200, 5000, 3400]

State recorded EC50 for all listed molecules.
1. CC(C)(C)[C@H](NC(=O)c1ccc2ccccc2c1OCc1ccc(C#N)cc1)C(=O)O [Example 31]
2. CCC(C)(C)C(NC(=O)c1ccc2ccc(C)cc2c1OCc1ccc(C(F)(F)F)cc1)C(=O)O (centres unmarked) [Example 275]
3. O=C(N[C@H](C(=O)O)C1CCCC1)c1ccc2cc(F)ccc2c1OCc1ccc(SC(F)(F)F)cc1 [Example 116]
4. O=C(N[C@@H](Cc1ccccc1)C(=O)O)c1ccc2ccccc2c1OCc1cccc2c1OC(F)(F)O2 [Example 102]
5. C[C@@H](OCc1ccccc1)C(NC(=O)c1ccc2ccccc2c1OCc1nc2ccccc2s1)C(=O)O (some centres unmarked) [Example 148]

Reply |
1: 8000; 2: 200; 3: 1200; 4: 8000; 5: 18300
